Cited source: patent US6924302B2

system: A375 malignant melanoma; assay: Inhibition of Cell Proliferation (14C-thymidine incorporation), A375; assay type: cell-based; details: Homo sapiens, A-375, A375 cell line
EXPERIMENTAL_ENDPOINT: log10 of IC50 (log10 of the value in nM)

# MOLECULE, RECORDED_MEASUREMENT
records = [
    ("Cc1ccccc1C(=O)n1nc(Nc2ccc(S(N)(=O)=O)cc2)nc1N [Cpd 57]", 2.05),
    ("Cc1ccsc1C(=O)n1nc(Nc2ccc(S(=O)(=O)Nc3ccccn3)cc2)nc1N [Cpd 121]", 2.33),
    ("Cc1ccc(F)c(C(=O)n2nc(Nc3ccc(S(N)(=O)=O)cc3)nc2N)c1Cl [Cpd 69]", 2.64),
    ("Nc1nc(Nc2ccc(S(N)(=O)=O)cc2)nn1C(=O)c1sccc1Cl [Cpd 17]", 3.70),
    ("Nc1nc(Nc2ccc(S(N)(=O)=O)cc2)nn1C(=O)c1c(F)cccc1Cl [Cpd 70]", 3.04),
    ("Nc1nc(Nc2ccc(N3CCNC3=O)cc2)nn1C(=O)c1c(F)cccc1F [Cpd 115]", 2.72),
    ("CCc1ccc(C(=O)n2nc(Nc3ccc(S(=O)(=O)NCCN(C)C)cc3)nc2N)s1 [Cpd 103]", 2.06),
    ("CNS(=O)(=O)c1ccc(Nc2nc(N)n(C(=O)c3sc(C)cc3C)n2)cc1 [Cpd 83]", 2.75),
    ("Nc1nc(Nc2ccc(S(N)(=O)=O)cc2)nn1C(=O)c1c(F)cccc1F [Cpd 1]", 2.65),
    ("CCc1ccc(C(=O)n2nc(Nc3ccc(NS(C)(=O)=O)cc3)nc2N)s1 [Cpd 110]", 2.38),
    ("Cc1ccc(F)c(C(=O)n2nc(Nc3ccc(N4CCNC4=O)cc3)nc2N)c1F [Cpd 114]", 3.23),
]
